Assayed System: human full-length recombinant HPK1 (Homo sapiens (Human), UniProt Q92918)
Sequence (Q92918 whole entry): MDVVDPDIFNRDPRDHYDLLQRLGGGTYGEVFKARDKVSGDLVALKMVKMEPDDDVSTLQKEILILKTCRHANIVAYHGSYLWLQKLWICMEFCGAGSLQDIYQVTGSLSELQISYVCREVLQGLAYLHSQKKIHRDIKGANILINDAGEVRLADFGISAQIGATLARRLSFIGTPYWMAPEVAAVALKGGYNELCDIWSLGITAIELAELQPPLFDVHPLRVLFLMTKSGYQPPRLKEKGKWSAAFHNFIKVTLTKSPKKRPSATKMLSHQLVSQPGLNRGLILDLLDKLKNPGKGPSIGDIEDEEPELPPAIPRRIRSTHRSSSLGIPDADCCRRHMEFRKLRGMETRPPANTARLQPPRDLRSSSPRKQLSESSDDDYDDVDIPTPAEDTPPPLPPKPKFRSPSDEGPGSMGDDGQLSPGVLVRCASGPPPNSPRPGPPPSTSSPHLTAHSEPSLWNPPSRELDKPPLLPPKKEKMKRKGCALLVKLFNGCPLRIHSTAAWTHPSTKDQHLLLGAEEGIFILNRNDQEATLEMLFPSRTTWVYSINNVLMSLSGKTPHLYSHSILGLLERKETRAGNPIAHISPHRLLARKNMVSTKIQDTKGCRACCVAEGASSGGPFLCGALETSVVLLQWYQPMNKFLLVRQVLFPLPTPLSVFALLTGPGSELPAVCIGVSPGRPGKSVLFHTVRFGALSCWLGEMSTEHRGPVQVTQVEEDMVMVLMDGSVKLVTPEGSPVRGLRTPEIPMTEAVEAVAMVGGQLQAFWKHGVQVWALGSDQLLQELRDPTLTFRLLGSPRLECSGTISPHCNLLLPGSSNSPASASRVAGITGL
Assay Info: HPK1 biochemical enzyme assay, microfluidic mobility shift assay (MSA)
Settings: HPK1 mobility shift assay; read-out: HPK1 Enzyme Assay_Ki
Provide the reported log10(Ki) of each item.
Scale: log10; quantity: Ki; unit before log: pM

Asked: Identify measured log10(Ki) corresponding to CCC(CC)n1cnnc1-c1cccc(N2Cc3c(cc(N4CCCC4(C)C)nc3CN)C2=O)n1 [Example 151]
Given back: 2.00

Asked: Identify measured log10(Ki) corresponding to CCCn1cnnc1-c1cccc(N2Cc3c(cc(N4CCC4)nc3CNC)C2=O)n1 [Example 93]
Given back: 2.62

Asked: Identify measured log10(Ki) corresponding to CNCc1nc(C2CCC2)cc2c1CN(c1cccc(-c3nncn3C(C)C)n1)C2=O [Example 69]
Given back: 2.72

Asked: Identify measured log10(Ki) corresponding to CCCn1cnnc1-c1cccc(N2Cc3c(cc(C4(C)CC4)nc3CNC)C2=O)n1 [Example 94]
Given back: 2.53

Asked: Identify measured log10(Ki) corresponding to NCc1nc(C2CC2)cc2c1CN(c1cccc(N3C(=O)OC[C@@H]3CF)n1)C2=O [Example 86]
Given back: 3.48

Asked: Identify measured log10(Ki) corresponding to CCN(C)c1cc2c(c(CN)n1)CN(c1cccc(-c3nnc(C)n3C(C)C)n1)C2=O [Example 160]
Given back: 2.68

Asked: Identify measured log10(Ki) corresponding to CCn1c(C)nnc1-c1cccc(N2Cc3c(cc(N4CCC[C@@H]4C)nc3CN)C2=O)n1 [Example 157]
Given back: 2.36

----------
Assayed System: human full-length recombinant HPK1 (Homo sapiens (Human), UniProt Q92918)
Assay Info: HPK1 biochemical enzyme assay, microfluidic mobility shift assay (MSA)
Settings: mobility shift assay; 75 μM ATP; Morrison equation, tight-binding competitive inhibition; read-out: HPK1 Enzyme Assay_Ki
Labelling field: enter YES if recorded Ki is less than 0.8 nM. Enter NO if it equals or exceeds that cut-off.

Asked: I'd appreciate it if you could check whether "C[C@H]1COC(=O)N1c1cccc(N2Cc3c(cc(C4CC4)nc3CN)C2=O)n1" has Ki smaller than 0.8 nM.
Given back: NO

Asked: I'd appreciate it if you could check whether "CC(C)n1cnnc1-c1cccc(N2Cc3c(cc(N4[C@H](C)C[C@@H]4C)nc3CN)C2=O)n1" has Ki smaller than 0.8 nM.
Given back: NO

Asked: I'd appreciate it if you could check whether "C[C@H]1COC(=O)N1c1cccc(N2Cc3c(cc(C4(C)CC4)nc3CN)C2=O)n1" has Ki smaller than 0.8 nM.
Given back: YES

Asked: I'd appreciate it if you could check whether "CCCn1cnnc1-c1cccc(N2Cc3c(cc(N(C)C)nc3CNC)C2=O)n1" has Ki smaller than 0.8 nM.
Given back: YES

Asked: I'd appreciate it if you could check whether "CCN(CC)c1cc2c(c(CNC)n1)CN(c1cccc(-c3nncn3C(C)C)n1)C2=O" has Ki smaller than 0.8 nM.
Given back: YES

Asked: I'd appreciate it if you could check whether "CNCc1nc(C(F)(F)F)cc2c1CN(c1cccc(-c3nncn3C(C)C)n1)C2=O" has Ki smaller than 0.8 nM.
Given back: NO

Asked: I'd appreciate it if you could check whether "C[C@H]1COC(=O)N1c1cccc(N2Cc3c(cc(N4CCC4)nc3CN)C2=O)n1" has Ki smaller than 0.8 nM.
Given back: YES

Asked: I'd appreciate it if you could check whether "CNCc1nc(N(C)C)cc2c1CN(c1cccc(N3C(=O)OC[C@@H]3C)n1)C2=O" has Ki smaller than 0.8 nM.
Given back: YES

Asked: I'd appreciate it if you could check whether "CC[C@H](C)n1cnnc1-c1cccc(N2Cc3c(cc(C4(C)CC4)nc3CNC)C2=O)n1" has Ki smaller than 0.8 nM.
Given back: YES

Asked: I'd appreciate it if you could check whether "CCCn1cnnc1-c1cccc(N2Cc3c(cc(N(C)C(C)C)nc3CNC)C2=O)n1" has Ki smaller than 0.8 nM.
Given back: YES

Asked: I'd appreciate it if you could check whether CC[C@H](CC(F)(F)F)n1cnnc1-c1cccc(N2Cc3c(cc(C(C)(C)C)nc3CNC)C2=O)n1 (single isomer, unassigned) has Ki smaller than 0.8 nM.
Given back: NO

Asked: I'd appreciate it if you could check whether "CCc1nnc(-c2cccc(N3Cc4c(cc(N5CCC[C@H]5C)nc4CNC)C3=O)n2)n1CC" has Ki smaller than 0.8 nM.
Given back: YES

Asked: I'd appreciate it if you could check whether "CNCc1nc(N(C)C)cc2c1CN(c1cccc(-c3nncn3[C@@H](C)CC(F)(F)F)n1)C2=O" has Ki smaller than 0.8 nM.
Given back: YES

Asked: I'd appreciate it if you could check whether "C[C@@H]1CCCN1c1cc2c(c(CN)n1)CN(c1cccc(N3C(=O)OC[C@@H]3CF)n1)C2=O" has Ki smaller than 0.8 nM.
Given back: YES

Asked: I'd appreciate it if you could check whether "CC(C)c1cc2c(c(CN)n1)CN(c1cccc(N3C(=O)OC[C@@H]3C)n1)C2=O" has Ki smaller than 0.8 nM.
Given back: NO
